Each item that follows carries a reported cell viability.
- System: NOMO1
- assay_protocol: cell viability relative to DMSO control; higher = less cytotoxic
- condition_notes: RPMI 5 mM glucose + 10% dialyzed FBS; 48 h; 15.4 µM
Provide the reading as a plain figure in %.

If you can, please state the reported cell viability value of Cc1ccc2nc(NCCN)c3ncc(C)n3c2c1 .
81.6

If you can, please state the reported cell viability value of CCCOc1ccc(C(=O)OCCN(CC)CC)cc1N .
131

If you can, please state the reported cell viability value of CC1(C)SCCN([S+](=O)([O-])c2ccc(OCC#CCO)cc2)[C@H]1C(=O)NO .
95.6

If you can, please state the reported cell viability value of C[C@]12CC[C@H]3[C@@H](CC(=C)\C4=C\C(=O)\C=C/[C@]34C)[C@@H]1CCC2=O .
86.4

If you can, please state the reported cell viability value of CN(C)CCCC1(c2ccc(F)cc2)OCc2cc(C#N)ccc21 (stereo not given) .
81

---

Each item that follows carries a reported cell viability.
- System: NOMO1
- assay_protocol: cell viability relative to DMSO control; higher = less cytotoxic
- condition_notes: RPMI 5 mM glucose + 10% dialyzed FBS; 48 h; 1.71 µM
Provide the reading as a plain figure in %.

If you can, please state the reported cell viability value of COc1cc(NCc2ccc3nc(N)nc(N)c3c2C)cc(OC)c1OC .
81.1

Continuing:
If you can, please state the reported cell viability value of NCCCC(N)(C(=O)O)C(F)F (stereo not given) .
125

If you can, please state the reported cell viability value of OC(=O)\C1=C\N(C2CC2)C3=CC(=C(F)C=C3C1=O)N4CCNCC4 .
123

---

- Test system: P12-Ichikawa
- assay_protocol: cell viability relative to DMSO control; higher = less cytotoxic
- condition_notes: HPLM + 10% dialyzed FBS; 48 h; 15.4 µM
readout_label: cell viability (%)
Provide the reading as a plain figure in %.

If you can, please state the reported cell viability value of O=C1NC(=O)/C(=C/c2ccc3nccnc3c2)S1 .
97.5

If you can, please state the reported cell viability value of CC(C(C)N1CC(=O)NC(=O)C1)N1CC(=O)NC(=O)C1 (configuration not stated) .
102

If you can, please state the reported cell viability value of Oc1ccc(OCc2ccccc2)cc1 .
69.9

If you can, please state the reported cell viability value of CN(C)c1nc(Cc2ccc(NC(=O)c3ccc(C(F)(F)F)cc3)cc2)nc(N(C)C)c1CC(=O)O .
98.2

If you can, please state the reported cell viability value of CC(C)(N)c1ccc(-c2nc3ccccc3nc2-c2ccccc2)cc1 .
4.51

If you can, please state the reported cell viability value of CO[C@@H](C(=O)N1Cc2[nH]nc(NC(=O)c3ccc(N4CCN(C)CC4)cc3)c2C1)c1ccccc1 .
25

If you can, please state the reported cell viability value of OC(=O)\C1=C\N(C2CC2)C3=CC(=C(F)C=C3C1=O)N4CCNCC4 .
91.9

If you can, please state the reported cell viability value of CCc1ccc(OCc2ccccc2C(=O)Nc2ccc3nc(C)cc(N)c3c2)cc1 .
6.84

If you can, please state the reported cell viability value of COc1ccc(CCC(=O)c2c(O)cc(O[C@@H]3O[C@H](CO)[C@@H](O)[C@H](O)[C@H]3O[C@@H]3O[C@@H](C)[C@H](O)[C@@H](O)[C@H]3O)cc2O)cc1O .
107

---

- Tested on: NOMO1
- assay_protocol: cell viability relative to DMSO control; higher = less cytotoxic
- condition_notes: RPMI 5 mM glucose + 10% dialyzed FBS; 48 h; 5.12 µM
Each item that follows carries a reported cell viability.
Provide the reading as a plain figure in %.

If you can, please state the reported cell viability value of CCNC(=O)CCC/C=C\C[C@@H]1[C@@H](/C=C/C(O)CCc2ccccc2)[C@@H](O)C[C@@H]1O (some centres undefined) .
118

If you can, please state the reported cell viability value of CCN(CC)CCNC(=O)c1c(C)[nH]c(/C=C2\C(=O)Nc3ccc(F)cc32)c1C .
31.8

If you can, please state the reported cell viability value of Oc1ccc(OCc2ccccc2)cc1 .
116

Now, please, on to the next molecule.
If you can, please state the reported cell viability value of COc1ccc(F)c(F)c1C(=O)c1cnc(NC2CCN([S+](C)(=O)[O-])CC2)nc1N .
54.1

---

- Test system: SEM cells
- assay_protocol: cell viability relative to DMSO control; higher = less cytotoxic
- condition_notes: RPMI 5 mM glucose + 10% FBS; 48 h; 0.0632 µM
Each item that follows carries a reported cell viability.
Provide the reading as a plain figure in %.

If you can, please state the reported cell viability value of CCOC(=O)c1c(C)n(C)c2ccc(O)cc12 .
101

If you can, please state the reported cell viability value of CNC[C@H](O)[C@@H](O)[C@H](O)[C@H](O)CO .
117

If you can, please state the reported cell viability value of COc1cc2c(cc1OC)[C@@H]1Cc3ccc(OC)c(OC)c3CN1CC2 .
104

If you can, please state the reported cell viability value of CCCCc1ccc2[nH]c(NC(=O)OC)nc2c1 .
52.4

If you can, please state the reported cell viability value of Oc1ccc(OCc2ccccc2)cc1 .
13.6

Now, please, on to the next compound.
If you can, please state the reported cell viability value of CCc1ccc(OCc2ccccc2C(=O)Nc2ccc3nc(C)cc(N)c3c2)cc1 .
112

---

- Tested on: P12-Ichikawa
- assay_protocol: AUC of viability dose-response curve (% viability x log10 dose units); higher = less sensitive
- condition_notes: HPLM + 10% dialyzed FBS; 48 h
readout_label: AUC of viability dose-response curve
Write no unit; give the number alone.

If you can, please state the reported AUC of viability dose-response curve value of C[C@]1(O)CC(C1)C2=NC(=C3[N]2C=CN=C3N)C4=CC5=C(C=C4)C=CC(=N5)C6=CC=CC=C6 (stereo not given) .
396

If you can, please state the reported AUC of viability dose-response curve value of CC(=O)N(C)C1(c2ccccc2)CCN(CCC[C@]2(c3ccc(Cl)c(Cl)c3)CCCN(C(=O)c3ccccc3)C2)CC1 .
346

If you can, please state the reported AUC of viability dose-response curve value of COC1=CC=C(C=C1)/C2=C(O)/C(=O)C3=C(O)C=C(O)C(=C3O2)CC=C(C)C .
467

If you can, please state the reported AUC of viability dose-response curve value of COc1ccc(F)c(F)c1C(=O)c1cnc(NC2CCN([S+](C)(=O)[O-])CC2)nc1N .
401

If you can, please state the reported AUC of viability dose-response curve value of OC(=O)\C1=C\N(C2CC2)C3=CC(=C(F)C=C3C1=O)N4CCNCC4 .
451

Continuing:
If you can, please state the reported AUC of viability dose-response curve value of O=C(c1cncc(Br)c1)N1CCC(N2CCCC2)CC1 .
463

If you can, please state the reported AUC of viability dose-response curve value of C[C@@H]1C(=O)O[C@H]2CC34[C@H]5C[C@@H](C(C)(C)C)C36[C@@H](OC(=O)[C@@H]6O)O[C@@]4(C(=O)O5)[C@]21O (stereo not given in full) .
447

---

- Test system: NOMO1
- assay_protocol: cell viability relative to DMSO control; higher = less cytotoxic
- condition_notes: RPMI 5 mM glucose + 10% dialyzed FBS; 48 h; 0.0211 µM
readout_label: cell viability (%)
Provide the reading as a plain figure in %.

The examples below pair each entry with its known result.
Param readout= cell viability; system= NOMO1; entry= CCCCCCNC(=O)N1\C=C(F)/C(=O)NC1=O ; returns value.
122

Param readout= cell viability; system= NOMO1; entry= O=C(O)CCCCCC(=O)NN=C1CCCC1 ; returns value.
110

Continuing:
Param readout= cell viability; system= NOMO1; entry= COc1ccc(F)c(F)c1C(=O)c1cnc(NC2CCN([S+](C)(=O)[O-])CC2)nc1N ; returns value.
106

Param readout= cell viability; system= NOMO1; entry= Oc1ccc(OCc2ccccc2)cc1 ; returns value.
112

Param readout= cell viability; system= NOMO1; entry= C[C@]1(O)CC(C1)C2=NC(=C3[N]2C=CN=C3N)C4=CC5=C(C=C4)C=CC(=N5)C6=CC=CC=C6 (stereo unspecified) ; returns value.
91.6

Param readout= cell viability; system= NOMO1; entry= O=C(O)c1ccc(O)c2ncc(N3CCOCC3)cc12 ; returns value.
104

---

- Tested on: P12-Ichikawa
- assay_protocol: cell viability relative to DMSO control; higher = less cytotoxic
- condition_notes: HPLM + 10% dialyzed FBS; 48 h; 0.00234 µM
Each item that follows carries a reported cell viability.
Provide the reading as a plain figure in %.

The examples below pair each entry with its known result.
If you can, please state the reported cell viability value of O=C(O)c1cc(O)c2c(c1)C(=O)c1cccc(O)c1C2=O .
117

If you can, please state the reported cell viability value of CNC[C@H](O)[C@@H](O)[C@H](O)[C@H](O)CO .
124

If you can, please state the reported cell viability value of C/C1=C2/[N]3[Co+]456([OH])<-[N]7=C1[C@@H](CCC(N)=O)C(C)(C)/C7=C/C1=[N]->4C(=C(/C)C4=[N]->5[C@@](C)([C@H]3[C@H](CC(N)=O)[C@@]2(C)CCC(=O)NC[C@@H](C)OP(=O)([O-])O[C@H]2[C@@H](O)[C@@H](n3c[n]->6c5cc(C)c(C)cc53)O[C@@H]2CO)[C@@](C)(CC(N)=O)[C@@H]4CCC(N)=O)/[C@@](C)(CC(N)=O)[C@@H]1CCC(N)=O .
97.2

If you can, please state the reported cell viability value of CC[C@H]1OC(=O)[C@H](C)[C@@H](O[C@H]2C[C@@](C)(OC)[C@@H](O)[C@H](C)O2)[C@H](C)[C@@H](O[C@@H]2O[C@H](C)C[C@H](N(C)C)[C@H]2O)[C@](C)(OC)C[C@@H](C)C(=O)[C@H](C)[C@@H](O)[C@]1(C)O .
102

Continuing:
If you can, please state the reported cell viability value of Cc1cc(Nc2ncc3c(n2)N(C)C(=O)N(c2cc(NC(=O)c4cccc(C(F)(F)F)c4)ccc2C)C3)n(C)n1 .
114
